Reported EC50 Rat APJ Receptor (GTPγS assay) is given for each of the following binders.
Target: T1, rat APJ receptor (rat, UniProt Q9JHG3 1-377)
T1 sequence (looked up): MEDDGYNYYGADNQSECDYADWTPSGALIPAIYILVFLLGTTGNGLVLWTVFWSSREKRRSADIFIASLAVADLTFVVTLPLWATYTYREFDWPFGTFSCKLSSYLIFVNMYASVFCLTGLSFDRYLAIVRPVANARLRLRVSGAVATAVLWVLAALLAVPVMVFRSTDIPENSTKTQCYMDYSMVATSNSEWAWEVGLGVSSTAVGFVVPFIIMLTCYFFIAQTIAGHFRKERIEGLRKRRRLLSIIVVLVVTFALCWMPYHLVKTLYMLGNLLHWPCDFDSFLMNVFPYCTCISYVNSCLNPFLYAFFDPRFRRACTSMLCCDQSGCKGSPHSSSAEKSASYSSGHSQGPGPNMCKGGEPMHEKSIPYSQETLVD
Assay: cell-based or functional assay
Starred links: 1 amine or outer side, 2 acyl side, 3 side chain; linkers in the order of their positions; H or OH if unused. Non-standard residues stand in square brackets, D forms with d. Primed or numbered codes have the meaning given here. *: point of attachment. Oic = O=C(O)[C@@H]1C[C@@H]2CCCC[C@@H]2N1; Phe(4-Cl) = N[C@@H](Cc1ccc(Cl)cc1)C(=O)O; dPhe(4-Cl) = N[C@H](Cc1ccc(Cl)cc1)C(=O)O; γGlu = O=C(O)[C@H](CCC(=O)[*:2])N[*:1]; B4ClF = β-4-chloro-L-phenylalanine; NMeR = CN[C@@H](CCCNC(=N)N)C(=O)O; Tridecanoyl = CCCCCCCCCCCCC(=O)*; hArg = N=C(N)NCCCC[C@H](N)C(=O)O; Cha = N[C@@H](CC1CCCCC1)C(=O)O; αMeL = CC(C)C[C@](C)(N)C(=O)O; αMeP = C[C@@]1(C(=O)O)CCCN1; AC4Abu″ = not defined here; Nle = CCCC[C@H](N)C(=O)O; Pip′ = not defined here; AEEA = NCCOCCOCC(=O)O; Aib = CC(C)(N)C(=O)O; BLys = β-lysine
Write the value in nM as a bare number.

The examples below pair each entry with its known result.
Tridecanoyl-[γGlu][AEEA][AEEA][dQ][hArg]P[NMeR][Cha]SH[BLys]G[Oic][Nle]P[dPhe(4-Cl)]-OH [Apelin polypeptide SEQ ID NO: 306] = 136
Tridecanoyl-[γGlu][AEEA][AEEA][dQ][hArg]P[dR][Cha]SHKG[Oic][Nle]P[B4ClF]-OH [Apelin polypeptide SEQ ID NO: 432] = 16.2
Tridecanoyl-[AC4Abu″][AEEA][AEEA][dQ]RP[NMeR][αMeL][BhSer]HKG[Oic][Nle][αMeP][Phe(4-Cl)]-OH (reading uncertain) [Apelin polypeptide SEQ ID NO: 518] = 0.444
Tridecanoyl-[γGlu][AEEA][AEEA][dQ]RP[NMeR][Cha]SHKG[Pip′][Nle][Aib][Phe(4-Cl)]-OH [Apelin polypeptide SEQ ID NO: 499] = 0.0852

Give the value of EC50 Rat APJ Receptor (GTPγS assay) reported for the following: XXXQXPRLSHKGPXPF ({TDA}[AC4Abu][Aeea][Aeea]Q[Cit]P[NMeArg]LSHKGP[Nle]P[4-Cl-F]{COOH}) [Apelin polypeptide SEQ ID NO: 400]
0.42

# return recorded EC50 Rat APJ Receptor (GTPγS assay) for input XXXQRPRLSHKGXXPF ({TDA}[AC4Abu][Aeea][Aeea]qR[aMePro][hArg][BLeu]SHKG[Pip][Nle][aMePro][4-Cl-F]{COOH}) [Apelin polypeptide SEQ ID NO: 503]
2.12

Output measured EC50 Rat APJ Receptor (GTPγS assay) for this item: XXXQRPRLSHKGPXPF ({TDA}[AC4Abu][Aeea][Aeea]QrP[NMehArg][BLeu]SHKGP[Nle]P[4-Cl-F]{COOH}) [Apelin polypeptide SEQ ID NO: 384]
4.35

Specify EC50 Rat APJ Receptor (GTPγS assay) for Tridecanoyl-[γGlu][AEEA][AEEA]QP[NMeR][Cha]SHKG[Oic][Nle][Aib][Phe(4-Cl)]-OH (SMILES CCCCCCCCCCCCC(=O)N[C@@H](CCC(=O)NCCOCCOCC(=O)NCCOCCOCC(=O)N[C@@H](CCC(N)=O)C(=O)N1CCC[C@H]1C(=O)N(C)[C@@H](CCCNC(=N)N)C(=O)N[C@@H](CC1CCCCC1)C(=O)N[C@@H](CO)C(=O)N[C@@H](Cc1c[nH]cn1)C(=O)N[C@@H](CCCCN)C(=O)NCC(=O)N1[C@H](C(=O)N[C@@H](CCCC)C(=O)NC(C)(C)C(=O)N[C@@H](Cc2ccc(Cl)cc2)C(=O)O)C[C@@H]2CCCC[C@@H]21)C(=O)O) [Apelin polypeptide SEQ ID NO: 520] and stop.
56.1

Supply measured EC50 Rat APJ Receptor (GTPγS assay) of XXXQRPRLSHKGPXPF ({TDA}[AC4Abu][Aeea][Aeea]QRP[NMeArg]LSHKGP[Nle][BhPro][4-Cl-F]{COOH}) [Apelin polypeptide SEQ ID NO: 426] in your reply.
0.382
